# Test system: SF-268
# Protocol Summary: NCI tumour cell line growth inhibition, 48 h
The source made the active and inactive calls. No stated cut-off is given here; in the data, active = GI50 up to about 1.1 µM and inactive = higher.
Listing: GI50 of selected compounds

Reference set, count: 2
Compound: C=CCC(CNC(=O)OCc1ccccc1)O[Si](C)(C)C(C)(C)C (stereo not drawn)
Observed Value: 45.3 µM (inactive)
//
Compound: Cc1cc(S(=O)(=O)Nc2nc(N)n(-c3ccccc3)n2)c(S)cc1Cl
Observed Value: > 100 µM (inactive)

Dear colleague, please send me the reported GI50 for O=C1c2ccccc2NC2C(O)c3ccccc3N12 (stereo not drawn) when you can.
> 100 µM (inactive)

====

# Test system: SNB-19
# Protocol Summary: NCI tumour cell line growth inhibition, 48 h
Activity calls are given as the source filed them. No stated cut-off is given here; in the data, active = GI50 up to about 1.1 µM and inactive = higher.
Listing: GI50 of selected compounds

Compound: O=C(NN1C(=O)C(Cl)C1c1cccc(Cl)c1)c1ccccc1O (stereo unspecified)
Recorded Endpoint: GI50
Observed Value: > 100 µM (inactive)
--
Compound: CCn1cc(/C=C/C(C)c2cn(CC)c(=O)[nH]c2=O)c(=O)[nH]c1=O (stereo unspecified)
Recorded Endpoint: GI50
Observed Value: > 100 µM (inactive)
--
Compound: O=C/C(=C(/Cl)c1ccc(O)cc1)c1ccccc1
Recorded Endpoint: GI50
Observed Value: 41.2 µM (inactive)
--
Compound: CC(C)C1=Cc2ccc3c(c2C(=O)C1=O)CCCC3(C)C
Recorded Endpoint: GI50
Observed Value: 17.2 µM (inactive)
--
Compound: NC(C(F)(F)F)(C(F)(F)F)P(=O)(Cc1ccccc1)Cc1ccccc1
Recorded Endpoint: GI50
Observed Value: > 100 µM (inactive)

Dear colleague, please send me the reported GI50 for C=C(C)C1CC=C(C)CC1 (stereo unspecified) when you can.
906 µM (inactive)

====

# Test system: NCI-H226
# Protocol Summary: NCI tumour cell line growth inhibition, 48 h
Activity calls are given as the source filed them. No stated cut-off is given here; in the data, active = GI50 up to about 1.1 µM and inactive = higher.
Recorded Endpoint: GI50

Dear colleague, please send me the reported GI50 for COc1ccc2[nH]c3c(C)c4ccnc(NCCCN(C)CCCNc5ccc6nnn7c8ccccc8c(=O)c5c67)c4c(C)c3c2c1 when you can.
> 10 µM (inactive)

Dear colleague, please send me the reported GI50 for CN(C)C(=S)N/N=C\C(=N/NC(=S)N(C)C)c1ccccc1 when you can.
4.61 µM (inactive)

====

# Tested on: Malme-3M
# Protocol Summary: NCI tumour cell line growth inhibition, 48 h
The source made the active and inactive calls. Cut-off read from the data, not from the text of the source: active = GI50 up to about 1.1 µM and inactive = higher.
Recorded Endpoint: GI50

Compound: COc1cc(O)c2c(c1)OCC(Cc1ccc(O)cc1)C2=O (stereo not given)
Recorded Endpoint: GI50
Observed Value: > 100 µM (inactive)
//
Compound: Cc1ccsc1/C(S)=N\c1ccc(Cl)c(/C=N/OC(C)(C)C)c1
Recorded Endpoint: GI50
Observed Value: 40.2 µM (inactive)
//
Compound: Cc1nc2c(nc1C)-c1c(c3c(n1Cc1ccccc1)C(=O)CCC3)C(=O)C2=O
Recorded Endpoint: GI50
Observed Value: 3.35 µM (inactive)

Tell me GI50 of Oc1cc2c(cc1C(c1ccc3c(c1)OCO3)N1CCN(C(c3ccc4c(c3)OCO4)c3cc4c(cc3O)OCO4)CC1)OCO2 (stereo not given) when tested on Malme-3M.
15.6 µM (inactive)

Tell me GI50 of Cn1c2ccc(Cl)cc2c2ccc3c(c21)C(=O)C=CC3=O when tested on Malme-3M.
> 10 µM (inactive)

Tell me GI50 of O=C1[C@H]2C(c3ccccc3)=NN(C(=O)c3ccccc3)[C@H]2C(=O)N1c1ccccc1 when tested on Malme-3M.
> 100 µM (inactive)

Tell me GI50 of CSc1nc(Cl)c(Br)c(Nc2cnc(O)nc2O)n1 when tested on Malme-3M.
20.7 µM (inactive)
